Catalogue of PBM E-score of 8-mer values
Tested on: SpTbr T-box DNA-binding domain (GST fusion);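 also: protein at 200 nM in PBS on universal double-stranded arrays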
Sequence: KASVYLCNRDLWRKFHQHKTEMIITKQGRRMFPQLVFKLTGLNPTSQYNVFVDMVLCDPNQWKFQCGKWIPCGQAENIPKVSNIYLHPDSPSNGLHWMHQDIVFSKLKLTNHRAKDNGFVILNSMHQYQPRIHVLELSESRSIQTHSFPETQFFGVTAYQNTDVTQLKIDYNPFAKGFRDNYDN
Test: PBM E-score of 8-mer (E-score (dimensionless, -0.5 to 0.5)); Tbr is Tbrain of the sea star Patiria miniata (Pm) or the sea urchin Strongylocentrotus purpuratus (Sp); higher = stronger binding preference
Conditions: the construct has about 5 more residues each side
The full ranking holds about 33,000 sequences; the median of “E-score (dimensionless, -0.5 to 0.5)” is about -0.046, and the highest 2% start at about 0.36. What follows is part of a selection rich in the highest values, with near analogues and random picks from the rest.
PROPERTY NAME: PBM E-score of 8-mer

- MONOMER SEQUENCE: "ACTCTTTG"
  RESULT VALUE: 0.221
- MONOMER SEQUENCE: "CGTGTGAA"
  RESULT VALUE: 0.464
- MONOMER SEQUENCE: "CGTGTGTA"
  RESULT VALUE: 0.096
- MONOMER SEQUENCE: "AGTCCTTG"
  RESULT VALUE: -0.0449
- MONOMER SEQUENCE: "AACACGAT"
  RESULT VALUE: 0.291
- MONOMER SEQUENCE: "AACACGTC"
  RESULT VALUE: 0.372
- MONOMER SEQUENCE: "CAGCGCAG"
  RESULT VALUE: -0.14
- MONOMER SEQUENCE: "AAGTGTGG"
  RESULT VALUE: 0.417
- MONOMER SEQUENCE: "GTACTATA"
  RESULT VALUE: -0.112
- MONOMER SEQUENCE: "CACTCAAG"
  RESULT VALUE: 0.106
- MONOMER SEQUENCE: "GACACGTC"
  RESULT VALUE: 0.333
- MONOMER SEQUENCE: "AGCGCACG"
  RESULT VALUE: 0.137
- MONOMER SEQUENCE: "CTGCCAAC"
  RESULT VALUE: 0.0901
- MONOMER SEQUENCE: "AAGTGTGT"
  RESULT VALUE: 0.331
- MONOMER SEQUENCE: "AACACGTA"
  RESULT VALUE: 0.317
- MONOMER SEQUENCE: "AACACGCT"
  RESULT VALUE: 0.185
- MONOMER SEQUENCE: "AGATGTGC"
  RESULT VALUE: 0.161
- MONOMER SEQUENCE: "CAGTGCGG"
  RESULT VALUE: 0.107
- MONOMER SEQUENCE: "CAGTGTGC"
  RESULT VALUE: 0.106
- MONOMER SEQUENCE: "AAGACGAT"
  RESULT VALUE: -0.0524
- MONOMER SEQUENCE: "GTGCCAAA"
  RESULT VALUE: 0.403
- MONOMER SEQUENCE: "CAGAAGCC"
  RESULT VALUE: -0.308
- MONOMER SEQUENCE: "CTCTGGGA"
  RESULT VALUE: 0.00265
- MONOMER SEQUENCE: "TGGGTGAA"
  RESULT VALUE: -0.137
- MONOMER SEQUENCE: "CCTTTAAC"
  RESULT VALUE: 0.141
- MONOMER SEQUENCE: "CTGCCAAA"
  RESULT VALUE: 0.0249
- MONOMER SEQUENCE: "GTGTAAAC"
  RESULT VALUE: 0.367
- MONOMER SEQUENCE: "ATGTGCGA"
  RESULT VALUE: 0.474
- MONOMER SEQUENCE: "ACTTCACA"
  RESULT VALUE: 0.357
- MONOMER SEQUENCE: "AAGTGGGG"
  RESULT VALUE: 0.177
- MONOMER SEQUENCE: "ATGTGCGG"
  RESULT VALUE: 0.0899
- MONOMER SEQUENCE: "CCTTCACG"
  RESULT VALUE: 0.278
- MONOMER SEQUENCE: "CGGAATGC"
  RESULT VALUE: -0.214
- MONOMER SEQUENCE: "ACTTCACG"
  RESULT VALUE: 0.312
- MONOMER SEQUENCE: "GATCCTCA"
  RESULT VALUE: 0.11
- MONOMER SEQUENCE: "AAAGAGGG"
  RESULT VALUE: -0.0825
- MONOMER SEQUENCE: "AACTTCAG"
  RESULT VALUE: -0.23
- MONOMER SEQUENCE: "CTGTGTGC"
  RESULT VALUE: 0.000685
- MONOMER SEQUENCE: "AAGTGTGC"
  RESULT VALUE: 0.389
- MONOMER SEQUENCE: "CCTTCACA"
  RESULT VALUE: 0.404
- MONOMER SEQUENCE: "CATGCCCC"
  RESULT VALUE: -0.219
- MONOMER SEQUENCE: "CTGTGGTC"
  RESULT VALUE: -0.0438
- MONOMER SEQUENCE: "AGGGCTGG"
  RESULT VALUE: -0.253
- MONOMER SEQUENCE: "CTGTAAAC"
  RESULT VALUE: 0.132
- MONOMER SEQUENCE: "AACCCGTT"
  RESULT VALUE: -0.0209
- MONOMER SEQUENCE: "TCTTCACA"
  RESULT VALUE: 0.395
- MONOMER SEQUENCE: "AAGTGCGC"
  RESULT VALUE: 0.194
